- target-or-test-system: human PTHR1 (R^0 conformation) (Homo sapiens, UniProt Q03431)
- Construct: expressed in transfected cells; host or cells: COS-7 cells (transient transfection; membranes)
- Sequence (Q03431 27-593): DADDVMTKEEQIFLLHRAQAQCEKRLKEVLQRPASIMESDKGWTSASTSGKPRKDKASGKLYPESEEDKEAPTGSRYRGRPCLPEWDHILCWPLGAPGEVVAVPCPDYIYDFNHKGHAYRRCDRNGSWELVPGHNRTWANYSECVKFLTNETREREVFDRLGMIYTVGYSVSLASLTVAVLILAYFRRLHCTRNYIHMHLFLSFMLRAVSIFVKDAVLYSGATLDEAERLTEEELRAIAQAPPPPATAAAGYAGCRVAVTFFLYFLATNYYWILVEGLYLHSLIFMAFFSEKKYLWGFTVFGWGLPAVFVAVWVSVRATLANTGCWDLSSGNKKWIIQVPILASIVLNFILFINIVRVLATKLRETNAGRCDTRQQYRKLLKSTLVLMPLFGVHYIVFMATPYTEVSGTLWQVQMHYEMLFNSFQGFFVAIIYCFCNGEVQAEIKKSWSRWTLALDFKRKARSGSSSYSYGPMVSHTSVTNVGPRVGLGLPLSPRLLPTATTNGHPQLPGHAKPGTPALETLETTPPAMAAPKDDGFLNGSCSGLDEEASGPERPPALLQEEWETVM
- assay-summary: Competition binding to the R^0 conformation of PTHR1
Where no end group is shown, it is not given here.
measurement-name: IC50 (nM)
Express it in nM; write the number only.

Answered cases to consult:
// recorded IC50 for AVAEIQLMHQRAKWLNSLRRRFFLHHLIAEIHTAEI [M‐PTH(1‐17)/PTHrP(18‐36)] : 1.91

So, AVAEIQLMHQRGKSIQDLRRRFFLHHLIAEIHTAEI [M‐PTH(1‐11)/PTHrP(12‐36)] ? Its IC50 was 2.14

Now take the following sequence into account.
Input AVAEIQLMHQRAKWLNSMRRRFFLHHLIAEIHTAEI [M‐PTH(1‐18)/PTHrP(19‐36)] . Output IC50: 1.66

These entries and their values trace back to paper PMC7340446.
